# tested-on: human neutrophil elastase (Homo sapiens)
# Construct: purchased Elastin Products Company
# Sequence (P08246 30-267): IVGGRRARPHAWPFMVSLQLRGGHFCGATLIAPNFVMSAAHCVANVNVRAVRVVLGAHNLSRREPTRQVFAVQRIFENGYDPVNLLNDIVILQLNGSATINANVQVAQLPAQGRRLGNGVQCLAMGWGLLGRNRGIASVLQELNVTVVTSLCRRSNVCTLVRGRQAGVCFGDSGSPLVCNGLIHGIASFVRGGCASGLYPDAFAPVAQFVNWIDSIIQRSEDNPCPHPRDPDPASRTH
# measurement-notes: Inhibitory action 2 against human neutrophil elastase (Test Example 2; fluorogenic substrate MeOSuc-AAPV-AMC, buffer with 400 mM NaCl, 0.2 mg/ml BSA)
# Assay type: biochemical
# condition-notes: 37° C., read-out: IC50 value (compound concentration required for 50% inhibition of human neutrophil elastase)
reported-property: pIC50
Answers are plain numbers, as −log10 of the molar value.

[[record]]
molecule = "Cc1c(-c2ccnn2-c2ccc(C#N)cc2)c(=O)n(C(C)C(=O)N(C)C)c(=O)n1-c1cccc(C(F)(F)F)c1 (centres unmarked) [Example 379]"
measured = 7.73

[[record]]
molecule = "Cc1c(-c2ccnn2-c2ccc(C#N)cc2F)c(=O)n(C)c(=O)n1-c1cccc(C(F)(F)F)c1 [Example 326]"
measured = 7.61

[[record]]
molecule = "Cc1c(-c2c(S(=O)(=O)N3CCOCC3)cnn2-c2ccc(C#N)cc2)c(=O)n(C)c(=O)n1-c1cccc(C(F)(F)F)c1 [Example 221]"
measured = 7.70

[[record]]
molecule = "Cc1c(-c2ccnn2-c2ccc(C#N)cc2)c(=O)n(C(C)CCNC2CC(F)(F)C2)c(=O)n1-c1cccc(C(F)(F)F)c1 (centres unmarked) [Example 406]"
measured = 7.89

[[record]]
molecule = "Cc1c(-c2c(N3CCN(C(C)C)CC3)cnn2-c2ccc(C#N)cc2)c(=O)n(C)c(=O)n1-c1cccc(C(F)(F)F)c1 [Example 318]"
measured = 7.83

[[record]]
molecule = "Cc1cc(C#N)ccc1-n1nccc1-c1c(C)n(-c2cccc(C(F)(F)F)c2)c(=O)n(C)c1=O [Example 328]"
measured = 7.61

[[record]]
molecule = "Cc1c(-c2ccnn2-c2ccc(C#N)cc2)c(=O)n(C)c(=O)n1-c1cccc(C(F)(F)F)c1 [Example 1]"
measured = 7.77

[[record]]
molecule = "Cc1c(-c2c(S(C)(=O)=O)cnn2-c2ccc(C#N)cc2)c(=O)n(C(C)C)c(=O)n1-c1cccc(C(F)(F)F)c1 (racemic) [Example 276]"
measured = 7.92


// input: 6 molecules below; output: pIC50 for each
1. Cc1c(-c2c(Cl)cnn2-c2ccc(C#N)cc2)c(=O)n(C)c(=O)n1-c1cccc(C(F)(F)F)c1 [Example 360]
2. Cc1c(-c2c(C(=O)NC3CC3)cnn2-c2ccc(C#N)cc2)c(=O)n(C)c(=O)n1-c1cccc(C(F)(F)F)c1 [Example 179]
3. Cc1c(-c2c(S(=O)(=O)O)cnn2-c2ccc(C#N)cc2)c(=O)n(C)c(=O)n1-c1cccc(C(F)(F)F)c1 [Example 196]
4. N#Cc1ccc(-n2nccc2-c2cn(-c3cccc(C(F)(F)F)c3)c(=O)n([C@@H]3CNC(=O)C3)c2=O)cc1 [Example 90]
5. Cc1c(-c2c(C3(O)CCS(=O)(=O)CC3)cnn2-c2ccc(C#N)cc2)c(=O)n(C)c(=O)n1-c1cccc(C(F)(F)F)c1 [Example 293]
6. Cc1c(-c2ccnn2-c2ccc(C#N)cc2)c(=O)n(C(C)CNS(C)(=O)=O)c(=O)n1-c1cccc(C(F)(F)F)c1 (centres unmarked) [Example 393]

1. 7.78
2. 8.06
3. 8.08
4. 6.45
5. 7.60
6. 7.58
